Each record here notes measured IC50.
- assayed.system: Melanocortin receptor 4 (Homo sapiens)
- measurement.description: Antagonist activity at MC4 receptor assessed as inhibition of alpha-MSH-stimulated cAMP production

Sample records with IC50:
* CC(C)C[C@H](N)c1cc(C(F)(F)F)ccc1N1CCN(C(=O)[C@@H]2NCC[C@@H]2c2ccc(Cl)cc2)CC1 | 2400 nM
* CC(=O)N1CC[C@H](c2ccc(Cl)cc2)[C@@H]1C(=O)N1CCN(c2ccc(C)cc2[C@@H](N)C(C)C)CC1 (stereo in doubt; form 2) | 520 nM

Hi! What's the reported IC50 for COC(=O)N1CC[C@H](c2ccc(Cl)cc2)[C@@H]1C(=O)N1CCN(c2ccc(C)cc2[C@@H](N)C(C)C)CC1 (stereo in doubt; form 1) on Melanocortin receptor 4 (Homo sapiens)? 720 nM

Hi! What's the reported IC50 for Cc1ccc(N2CCN(C(=O)[C@H]3[C@@H](c4ccc(Cl)cc4)CCN3C(=O)N(C)C)CC2)c([C@@H](N)C(C)C)c1 (stereo in doubt; form 2) on Melanocortin receptor 4 (Homo sapiens)? 93 nM

----------
Ki, Melanocortin receptor 4 (Homo sapiens): measured values
Just the number please, in nM, no unit attached.

- CCOC(=O)N1CC[C@H](c2ccc(Cl)cc2)[C@@H]1C(=O)N1CCN(c2ccc(F)cc2[C@@H](N)C(C)C)CC1: 74

Look up Ki: COC(=O)N1CC[C@@H](c2ccc(Cl)cc2)[C@H]1C(=O)N1CCN(c2ccc(C)cc2[C@@H](N)C(C)C)CC1 53

Look up Ki: Cc1ccc(N2CCN(C(=O)[C@@H]3[C@@H](c4ccc(Cl)cc4)CCN3C(=O)[C@H]3Cc4ccccc4CN3)CC2)c([C@@H](N)C(C)C)c1 92

----------
- measurement.description: Volume of distribution in rat at 5 mg/kg, iv
- Type: ADME, organism-based
- Design: dose 5 mg/kg, route intravenous
- settings: in vivo
observation.type: Vd
// unit must come after the numeric part

Look up Vd: Cc1ccc(N2CCN(C(=O)[C@H]3[C@@H](c4ccc(Cl)cc4)CCN3C(=O)N(C)C)CC2)c([C@@H](N)C(C)C)c1 (stereo in doubt; form 2) 17.2 L/kg

----------
- Tested on: Rattus norvegicus
- measurement.description: AUC in rat at 10 mg/kg, po
- Format: ADME, organism-based, Plasma
- Set-up: dose 10 mg/kg, route oral
- settings: in vivo
observation.type: AUC (ng·h/mL)
Just the number please, in ng·h/mL, no unit attached.

Look up AUC: Cc1ccc(N2CCN(C(=O)[C@H]3[C@@H](c4ccc(Cl)cc4)CCN3C(=O)N(C)C)CC2)c([C@@H](N)C(C)C)c1 (stereo in doubt; form 2) 533

----------
- assayed.system: Melanocortin receptor 4 (Homo sapiens, UniProt P32245)
- Sequence (P32245 whole entry): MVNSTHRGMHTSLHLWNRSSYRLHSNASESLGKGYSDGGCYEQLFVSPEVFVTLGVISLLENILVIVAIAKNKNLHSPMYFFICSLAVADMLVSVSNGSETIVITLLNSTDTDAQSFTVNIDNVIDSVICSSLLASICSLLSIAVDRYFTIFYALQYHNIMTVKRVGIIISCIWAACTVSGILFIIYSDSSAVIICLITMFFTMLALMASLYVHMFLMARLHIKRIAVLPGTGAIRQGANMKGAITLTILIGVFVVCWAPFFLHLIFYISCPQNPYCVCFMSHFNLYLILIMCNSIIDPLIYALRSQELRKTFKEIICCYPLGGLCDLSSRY
pKi: −log10 of the molar value.
pKi vs 8: at or above is true (1), below is false (0).

• Cc1ccc(N2CCN(C(=O)[C@@H]3[C@@H](c4ccc(Cl)cc4)CCN3C(=O)OC(C)C)CC2)c([C@@H](N)C(C)C)c1 = false (0)
• COc1ccc([C@H]2CCN(C(C)=O)[C@H]2C(=O)N2CCN(c3ccc(C)cc3[C@@H](N)C(C)C)CC2)cc1 = false (0)
• Cc1ccc(N2CCN(C(=O)[C@H]3[C@@H](c4ccc(Cl)cc4)CCN3C(=O)[C@H]3Cc4ccccc4CN3)CC2)c([C@@H](N)C(C)C)c1 = true (1)
• CCCC(=O)N1CC[C@H](c2ccc(Cl)cc2)[C@H]1C(=O)N1CCN(c2ccc(C)cc2[C@@H](N)C(C)C)CC1 = false (0)
• CC(=O)N1CC[C@H](c2ccc(Cl)cc2)[C@@H]1C(=O)N1CCN(c2ccc(C)cc2[C@@H](N)C(C)C)CC1 (stereo in doubt; form 1) = false (0)

Next item in the queue.
Answer whether pKi of CC(C)C[C@H](N)c1cc(Cl)ccc1N1CCN(C(=O)C2NCCC2c2ccc(Cl)cc2)CC1 (some centres not stated) is greater than or equal to 8. false (0)

The reported measurements were obtained from ChEMBL document CHEMBL1141529.
